Molecular target: Concanavalin-A (Canavalia ensiformis) (UniProt P02866)
Sequence (P02866 whole entry, looked up): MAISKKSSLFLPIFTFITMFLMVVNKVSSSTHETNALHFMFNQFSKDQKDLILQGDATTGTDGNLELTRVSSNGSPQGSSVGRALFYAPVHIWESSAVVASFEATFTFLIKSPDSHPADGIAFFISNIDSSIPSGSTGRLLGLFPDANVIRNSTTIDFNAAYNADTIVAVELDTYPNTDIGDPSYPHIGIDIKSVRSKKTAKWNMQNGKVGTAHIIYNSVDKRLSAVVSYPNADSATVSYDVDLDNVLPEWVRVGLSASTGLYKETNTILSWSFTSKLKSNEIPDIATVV
Assay: compounds binding concanavalin A lectin – biochemical, small-molecule microarray, Alexa647 label, 635 nm, artefact control for SMM control protein annotation, primary screen (AID 1127);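 further: z combines 667 nm emission intensity with signal-to-noise across three replicate slides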
Conditions: ConA-A647 binding fluorescence, higher = more signal
Property measured: composite z-score
Keep the answer to the number alone.

Illustrative cases are given below, each with its answer.
O=c1c2ccc(Br)cc2nc(-c2ccccc2)n1Cc1cccc(O)c1 = 0.988
C#CCNS(=O)(=O)N(C)C = 0.0968
COCCOC(=O)N1C(=O)[C@@]2(c3cc(C#CCCO)ccc31)[C@H](C(=O)NC[C@H](O)c1ccccc1)[C@H]1C(=O)O[C@H](c3ccccc3)[C@H](c3ccccc3)N1[C@@H]2c1ccccc1OCCO = 1.09
C=CCN1C(=O)[C@@]2(O[C@@H](CCn3cc([C@H](O)c4ccccc4)nn3)[C@H]([Si](C)(C)c3ccc(OC)cc3)[C@H]2C)c2cc(NC(=O)c3ccc(OC)cc3)ccc21 = 0.713
CC(C)=CCCC(C)=CC(O)C1C=CC2C(=O)N(c3ccccc3)C(=O)C2N1Nc1ccc([N+](=O)[O-])cc1 (stereo not given) = 1.14
CN(C)CCCN1C(=O)[C@@]2(Cc3ccccc31)c1ccccc1C(=O)N(Cc1ccccc1)[C@H]2c1ccc(CO)cc1 = 0.544
COCCOC(=O)N1C(=O)[C@@]2(c3cc(C#CCC(C(=O)OC)C(=O)OC)ccc31)[C@H](C(=O)N1CCCCCCC1)[C@H]1C(=O)O[C@H](c3ccccc3)[C@H](c3ccccc3)N1[C@@H]2c1ccc(O)cc1 = 0.783
C=CC[C@@]1(C(=O)NCCN2CCOCC2)N=C(c2ccc(OCCCO)cc2)O[C@@H]1c1ccccc1 = 0.608

composite z-score for COC(=O)[C@@]1(Cc2ccccc2)[C@H]2c3cc(C(=O)N4CCCC4)n(Cc4ccccc4)c3C[C@H]2CN1C(=O)c1ccccc1 ?
0.914

Now the compound COC(=O)C(CC#Cc1ccc2c(c1)[C@]1(C(=O)N2)[C@H](C(=O)N2CCc3cc(OC)c(OC)cc3C2)[C@H]2C(=O)O[C@H](c3ccccc3)[C@H](c3ccccc3)N2[C@@H]1c1ccc(O)cc1)C(=O)OC
1.16

Try CC1CC/C=C\[C@H]2OC34C=CCN(Cc5ccccc5)C(=O)[C@H]3N(CCO)C(=O)[C@@H]4C2C(=O)O1 (stereo not given in full) next.
-0.315

CCCCC=C[C@@H](NC(=O)CCc1ccccc1)c1ccccc1 ?
1.12

Check COC(=O)[C@@]1(Cc2ccc(F)cc2)[C@H]2c3cc(C(=O)N(C)C)n(CCSCCO)c3C[C@H]2CN1C(=O)c1ccccc1 too.
-0.103

Now the compound COc1cc(C(O)C2C=CC3C(=O)N(C)C(=O)C3N2NC(=O)OC(C)(C)C)cc(OC)c1OC (stereo not given)
0.92

Could you do the same for C=C(/C(=C/C[C@@H](OC(=O)c1ccncc1)c1cccc(OCCO)c1)c1cc(C(=O)OC)ccc1OC)C(C)C , please?
0.996

Where these numbers come from: PubChem BioAssay
